Target: 4'-phosphopantetheinyl transferase ffp (Bacillus subtilis)
Assay: qHTS Assay for Inhibitors of Bacillus subtilis Sfp phosphopantetheinyl transferase (PPTase);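 also: the enzyme is Sfp with the accession as filed and its product quenches rhodamine fluorescence; 0% = enzyme reaction without inhibitor and -100% = no enzyme wells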
Settings: Biochemical Sfp PPTase activity
Excerpt: Assay Submitter: Michael Burkart, University of California, San Diego Screening Center PI: Austin, C.P. Screening Center: NIH Chemical Genomics Center [NCGC] […] In search of small molecule Sfp-PPTase inhibitors, a fluorescence quenching assay was developed for detection of Bacillus subtilis Sfp-PPTase enzymatic activity in a miniaturized high-throughput format. […]
Hit rate of the full screen: of about 310,000 compounds, about 11,000 (3.5%) were called active. Inconclusive results (about 4%) are left out. This excerpt belongs to a sample that is enriched for actives.
MEASURE_NAME: largest response in the series, negative = inhibition (%)
The answer is to be given in %; state only the numeric part.

Worked examples follow.
>>> df
                                   compound  readout_value
0        CN(C)c1ccc(-c2nnc(-c3cccnc3)o2)cc1           7.75
1  O=C(/C=C/c1cccc([N+](=O)[O-])c1)N1CCN(Cc2ccccc2)CC1           2.23
2  CCN(CC)CCN(C(=O)c1ccc(S(=O)(=O)N2CCOCC2)cc1)c1nc2cc3c(cc2s1)OCCO3           7.56
3  O=c1c([N+](=O)[O-])cc(C(F)(F)F)cn1Cc1cccc(Cl)c1           3.19
4      O=c1c2cc(Br)ccc2nc(-c2cccc(Cl)c2)n1O           10.6

Param item: `COc1ccc([N+](=O)[O-])cc1NCC(=O)c1ccc(C)cc1` ; param system: 4'-phosphopantetheinyl transferase ffp (Bacillus subtilis); output largest response in the series, negative = inhibition: -11.6

Param item: `CC(C)c1ccc(-c2nn[nH]n2)cc1` ; param system: 4'-phosphopantetheinyl transferase ffp (Bacillus subtilis); output largest response in the series, negative = inhibition: 21.7

Param item: `O=C(NCCCO)c1cc2c([nH]c3ccccc32)c(-c2ccc(F)cc2)n1` ; param system: 4'-phosphopantetheinyl transferase ffp (Bacillus subtilis); output largest response in the series, negative = inhibition: -19.4

Param item: `O=C(/C=C/c1ccc(Cl)cc1Cl)NCc1ccco1` ; param system: 4'-phosphopantetheinyl transferase ffp (Bacillus subtilis); output largest response in the series, negative = inhibition: -1.31

Param item: CC(O)c1nc2c(c(=O)n(C)c(=O)n2C)n1C (stereo unspecified) ; param system: 4'-phosphopantetheinyl transferase ffp (Bacillus subtilis); output largest response in the series, negative = inhibition: 11.9

Param item: `O=C(Nc1cccnc1)c1cc(Cl)ccc1Cl` ; param system: 4'-phosphopantetheinyl transferase ffp (Bacillus subtilis); output largest response in the series, negative = inhibition: 16.1
